# Tested System: Follistatin-related protein 3 (Homo sapiens) (UniProt O95633)
# Sequence (O95633 whole entry, looked up): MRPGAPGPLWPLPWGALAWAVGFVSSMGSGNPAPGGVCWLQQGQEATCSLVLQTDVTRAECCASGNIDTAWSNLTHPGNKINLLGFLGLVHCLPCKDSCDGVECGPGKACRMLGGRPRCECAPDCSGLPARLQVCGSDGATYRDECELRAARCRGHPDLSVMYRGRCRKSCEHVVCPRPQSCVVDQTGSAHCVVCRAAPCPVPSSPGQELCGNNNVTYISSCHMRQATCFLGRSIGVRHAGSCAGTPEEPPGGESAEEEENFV
# Protocol Notes: FSTL3 binders on small-molecule microarrays, primary screen, biochemical, small-molecule microarray, 635 nm fluorescence (AID 1105);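 also: score merges emission near 667 nm and signal to noise per printed spot across three slides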
# Experimental Parameters: FSTL3 binding, higher = more signal
Quantity Measured: composite z-score
A bare number is all that is needed in reply.

Below, 6 compounds whose answers are already recorded.
>  <Compound>
CC(C)N1C(=O)c2ccccc2[C@](C)(C(=O)NCc2ccccc2)[C@@H]1c1ccc(CO)cc1

>  <Tested System>
Follistatin-related protein 3 (Homo sapiens) (UniProt O95633)

>  <composite z-score>
-0.615

$$$$
>  <Compound>
CCOC(=O)C[C@H]1[C@H](OC(=O)Cc2ccc3c(c2)OCO3)[C@@H](NC(=O)c2ccc(-c3ccccc3)cc2)c2cc(OCCCO)ccc2N1C(=O)Cc1ccc(OC)cc1

>  <Tested System>
Follistatin-related protein 3 (Homo sapiens) (UniProt O95633)

>  <composite z-score>
0.543

$$$$
>  <Compound>
CCCC[C@H]1OB(O)C[C@H]2C1=C(COc1ccccc1)C[C@H]1C(=O)N(C)C(=O)[C@H]12

>  <Tested System>
Follistatin-related protein 3 (Homo sapiens) (UniProt O95633)

>  <composite z-score>
0.43

$$$$
>  <Compound>
C=CC[C@]12N=C(c3ccc(OCCCO)cc3)O[C@H]1c1ccccc1N(Cc1ccccc1)C2=O

>  <Tested System>
Follistatin-related protein 3 (Homo sapiens) (UniProt O95633)

>  <composite z-score>
0.836

$$$$
>  <Compound>
CC(C)c1ccc(NN2C(C(O)C(c3ccccc3)c3ccccc3)C=CC3C(=O)N(c4ccccc4)C(=O)C32)cc1 (configuration not stated)

>  <Tested System>
Follistatin-related protein 3 (Homo sapiens) (UniProt O95633)

>  <composite z-score>
1.06

$$$$
>  <Compound>
[N-]=[N+]=NCc1ccccc1[C@H]1OC(c2ccc(OCCCO)cc2)=N[C@@]1(Cc1ccccc1)C(=O)NCc1ccccc1

>  <Tested System>
Follistatin-related protein 3 (Homo sapiens) (UniProt O95633)

>  <composite z-score>
0.231

$$$$

Continue with the next compound.
Given CCOC1=C2C(CN(S(=O)(=O)c3ccc(C)cc3)C2c2ccc(C)cc2)C2C(=O)N(c3ccccc3)C(=O)C2C1 (configuration not stated) , report its composite z-score on Follistatin-related protein 3 (Homo sapiens) (UniProt O95633). 0.782

---

composite z-score values by entry
# Test system: PRMT1 (protein arginine N-methyltransferase 1)
# Protocol Notes: PRMT1 binders on small-molecule microarrays, primary screen, biochemical, small-molecule microarray, 635 nm fluorescence (AID 1088);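 also: binding of Prmt1 protein to compounds spotted on small-molecule microarray slides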
# Experimental Parameters: small-molecule microarray binding, higher = more signal
Could you respond with only the numeric value?

>  <Compound>
O=C1C2C=CC(C(O)c3c(F)cccc3Cl)N(Nc3ccccc3)C2C(=O)N1c1ccccc1 (configuration not stated)

>  <composite z-score>
1.56

$$$$

Assign composite z-score to the following record: O=C1NCC(=O)N2[C@@H]1C[C@@H](C(=O)O)[C@H]2c1cccc(OCCO)c1 1.54

Supply measured composite z-score of CCN(CC)c1ccc(N2CC=CC34O[C@@H]5/C=C\CCCOC(=O)C5[C@H]3C(=O)N(CCO)[C@@H]4C2=O)cc1 (some centres not stated) in your reply. 0.0226

Consider the compound O=C1OCC=C[C@H]2OC34C=CCN(c5ccc6ccccc6c5)C(=O)[C@H]3N(CCCCCCO)C(=O)[C@@H]4[C@@H]12 (some centres not stated) . State its measured composite z-score. -0.518

Entry COc1ccc(C(=O)Nc2ccc(CN3C(=O)[C@@]4(O[C@@H](CC(=O)N5CCC[C@H]5CO)[C@H]([Si](C)(C)c5ccc(OC)cc5)[C@H]4C)c4ccccc43)cc2)cc1 needs its composite z-score filled in; supply it. 1.55

Identify composite z-score associated with the compound C=CCN1C(=O)[C@@]2(O[C@@H](CCO)[C@H]([Si](C)(C)c3ccc(OC)cc3)[C@H]2C)c2cc(NC(=O)c3ccc(OC)cc3)ccc21 1.54

Indicate the recorded composite z-score value for this compound: CC(C)OC(=O)C=C1C[C@@H](c2ccccc2C(F)(F)F)O[C@@H](c2ccccc2C(F)(F)F)O1 0.494
